Entries annotated with measured fold repression
Biological target: T1, ECF31_34
T1 chain: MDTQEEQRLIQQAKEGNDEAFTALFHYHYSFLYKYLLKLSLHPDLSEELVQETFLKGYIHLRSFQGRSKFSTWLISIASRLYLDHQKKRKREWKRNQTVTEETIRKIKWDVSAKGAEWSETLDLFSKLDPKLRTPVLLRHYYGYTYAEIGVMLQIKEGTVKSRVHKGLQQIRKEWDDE
Respond using a number only.

binder AS30_35 (protein) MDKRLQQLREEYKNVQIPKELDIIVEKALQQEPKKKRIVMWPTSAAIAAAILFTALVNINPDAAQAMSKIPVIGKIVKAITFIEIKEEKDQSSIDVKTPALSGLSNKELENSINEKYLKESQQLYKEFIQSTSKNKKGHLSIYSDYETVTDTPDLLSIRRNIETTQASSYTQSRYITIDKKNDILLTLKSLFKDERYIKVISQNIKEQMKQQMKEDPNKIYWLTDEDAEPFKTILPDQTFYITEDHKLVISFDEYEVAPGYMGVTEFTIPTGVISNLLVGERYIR , fold repression observed: 2.22

binder AS03_1198 (protein) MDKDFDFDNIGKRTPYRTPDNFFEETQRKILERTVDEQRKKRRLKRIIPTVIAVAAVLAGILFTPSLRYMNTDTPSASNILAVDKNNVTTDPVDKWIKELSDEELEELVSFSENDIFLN , fold repression observed: 1.12

binder AS15_436 (protein) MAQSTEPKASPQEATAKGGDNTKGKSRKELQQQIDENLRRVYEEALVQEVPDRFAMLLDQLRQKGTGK , fold repression observed: 3.29
